The reported numbers originate from ChEMBL document CHEMBL4229492.

# Test system: Mus musculus
# TEST_PROTOCOL: Toxicity in Slc:ddY mouse assessed as induction of convulsion at 5 ug/5 uL/mouse administered intracisternally and measured over 30 mins post dose
# Type: organism-based
# MEASUREMENT_SETUP: in vivo, other, 0.5 h
VALUE_TYPE: Activity

{"STRUCTURE_AS_SMILES": "O=C(O)c1cn(C2CC2)c2cc(N3CCNCC3)c(F)cc2c1=O", "SYSTEM_UNDER_TEST": "Mus musculus", "VALUE_TYPE": "Activity", "EXPERIMENTAL_VALUE": "Non-Toxic"}
{"STRUCTURE_AS_SMILES": "C[C@H]1COc2c(N3CCN(C)CC3)c(F)cc3c(=O)c(C(=O)O)cn1c23.C[C@H]1COc2c(N3CCN(C)CC3)c(F)cc3c(=O)c(C(=O)O)cn1c23.O", "SYSTEM_UNDER_TEST": "Mus musculus", "VALUE_TYPE": "Activity", "EXPERIMENTAL_VALUE": "Non-Toxic"}
{"STRUCTURE_AS_SMILES": "COc1c(N2CC3(CC3)[C@](C)(N)C2)c(F)cc2c(=O)c(C(=O)O)cn([C@@H]3C[C@@H]3F)c12", "SYSTEM_UNDER_TEST": "Mus musculus", "VALUE_TYPE": "Activity", "EXPERIMENTAL_VALUE": "Non-Toxic"}
{"STRUCTURE_AS_SMILES": "COc1c(N2C[C@@H]3CCOC[C@@]3(N)C2)c(F)cc2c(=O)c(C(=O)O)cn([C@@H]3C[C@@H]3F)c12", "SYSTEM_UNDER_TEST": "Mus musculus", "VALUE_TYPE": "Activity", "EXPERIMENTAL_VALUE": "Non-Toxic"}

---

# TEST_PROTOCOL: Drug recovery in cynomolgus monkey urine at 5 mg/kg, iv after 24 hrs
# Type: ADME, organism-based, Macaca fascicularis
# MEASUREMENT_SETUP: read-out: Drug recovery
VALUE_TYPE: dose excreted at 24 h (%)
Express your answer in %, writing the number without its unit.

Requested read-out: dose excreted at 24 h. Entry: `COc1c(N2C[C@@H]3CCOC[C@@]3(N)C2)c(F)cc2c(=O)c(C(=O)O)cn([C@@H]3C[C@@H]3F)c12` 65

---

# TEST_PROTOCOL: Cmin in cynomolgus monkey serum at 5 mg/kg, iv after 5 mins
# Format: ADME, organism-based, Macaca fascicularis
# MEASUREMENT_SETUP: read-out: Cmin
VALUE_TYPE: concentration at 5 min
In your response, put the unit directly after the numeric value.

Which value of concentration at 5 min has been reported for `COc1c(N2C[C@@H]3CCOC[C@@]3(N)C2)c(F)cc2c(=O)c(C(=O)O)cn([C@@H]3C[C@@H]3F)c12` in the records? 7000 ng/mL

---

# TEST_PROTOCOL: AUC (0 to 8 hrs) in Crj:CD rat at 5 mg/kg, po
# Format: ADME, organism-based
# Design: time < 8 hr, dose 5 mg/kg, route oral
# MEASUREMENT_SETUP: in vivo
VALUE_TYPE: AUC(0-t) at 8 h (ng·h/mL)
Quick reminder: number only, in ng·h/mL, skip the unit.

Study these solved cases before continuing.
{"STRUCTURE_AS_SMILES": "COc1c(N2C[C@@H]3CCOC[C@@]3(N)C2)c(F)cc2c(=O)c(C(=O)O)cn([C@@H]3C[C@@H]3F)c12", "AUC(0-t) at 8 h, ng·h/mL": 3140}
{"STRUCTURE_AS_SMILES": "N[C@@]12CCC[C@@H]1CNC2", "AUC(0-t) at 8 h, ng·h/mL": 210}

Would you kindly look at the next entry?
Which AUC(0-t) at 8 h is reported for this molecule? `N[C@@]12CCCC[C@H]1CNC2` 4760
